# collection of MIC values tested on E. coli Neumann
# value in µg/mL; strip the unit string

The cases that follow already have their MIC on record.
# MOLECULE, MIC (µg/mL)
records = [
    ("CC1C=CC(N)C2CN(c3ccc4c(=O)c(C(=O)O)cn(C5CC5)c4c3Cl)CC12 (centres unmarked) [Example 8]", 0.015),
    ("CC1C=CC(N)C2CN(c3ccc4c(=O)c(C(=O)O)cn(C5CC5)c4c3F)CC12 (centres unmarked) [Example 21]", 0.015),
    ("NC1CCN(c2ccc3c(=O)c(C(=O)O)cn(C4CC4)c3c2F)C1 (centres unmarked) [Reference, reference compound]", 0.031),
    ("NC1C=CCC2CN(c3ccc4c(=O)c(C(=O)O)cn(C5CC5)c4c3Cl)CC12 (centres unmarked) [Example 7]", 0.0078),
]

Here is the next item to consider.
State the recorded MIC for this entry: NC1C=CCC2CN(c3ccc4c(=O)c(C(=O)O)cn(C5CC5)c4c3F)CC12 (centres unmarked) [Example 20]
0.03
